system: HCC 2998; assay: NCI tumour cell line growth inhibition, 48 h
Calls of active or inactive are those of the source. Cut-off read from the data, not from the text of the source: active = GI50 up to about 1.1 µM and inactive = higher.
Bench note: report the call from true for active, false for inactive

Example cases with answers are listed next.
{"Molecule": "CC(=O)O[C@H]1C(=O)[C@@]2(C)[C@H]([C@H](OC(=O)c3ccccc3)[C@]3(O)C[C@H](OC(=O)[C@H](O)[C@@H](NC(=O)c4cccc(N=[N+]=[N-])c4)c4ccccc4)C(C)=C1C3(C)C)[C@]1(OC(C)=O)CO[C@@H]1C[C@@H]2O", "Target desc": "HCC 2998", "Category": "true"}
{"Molecule": "CN1CCN(CN2C(=O)C3C4C=CC(C3C2=O)C2C3C(=O)N(CN5CCN(C)CC5)C(=O)C3C42)CC1 (stereo not given)", "Target desc": "HCC 2998", "Category": "false"}

Would you mind telling me which call this test gave CC(C)n1c(=O)n(-c2ccccc2)n(C(C)(C)C)c1=O ?
false

Now the molecule BrC(Br)=C1C(=C(Br)Br)C(Br)C1Br (stereo not given)
true

Now the molecule N#CC(c1ccc(O)cc1)N1CCN(C(C#N)c2ccc(O)cc2)CC1 (stereo not given)
false

Now the molecule COc1ccc(N/N=C2\CCOc3ccc(C)cc3C2=O)cc1
false

Now the molecule N=C(N)N/N=C/c1c(-c2ccc(Cl)c([N+](=O)[O-])c2)nc2sc(Cl)cn12
false

Now the molecule CNCC(SC)c1ccc(O)c(O)c1 (stereo not given)
false

----------
tested on: KM12; assay: NCI tumour cell line growth inhibition, 48 h
The source made the active and inactive calls. Rule as the data show it: active = GI50 up to about 1.1 µM and inactive = higher.
Property name: GI50

# annotated cases, reported GI50 shown
{"Compound": "N/N=c1\\c2ccccc2c2ccc3c4ccccc4/c(=N\\N)c3c12", "GI50": "> 100 µM (inactive)"}
{"Compound": "O=C(Nc1cccc(F)c1)c1cc2ccc(O)cc2o/c1=N\\c1cccc(F)c1", "GI50": "6.95 µM (inactive)"}
{"Compound": "N#CCCN(CCC#N)c1ccc(C(=N/c2ccc(Cl)cc2)/N=N/c2ccccc2)cc1", "GI50": "58.5 µM (inactive)"}
{"Compound": "COc1ccc(C)cc1N1C(=O)C2ON(Cc3ccc(CC(N)=O)cc3)C(c3c4ccccc4c(Cl)c4ccccc34)C2C1=O (stereo not given)", "GI50": "14 µM (inactive)"}

// below: GI50 requested for another compound
So what does the record say about GI50 for Nc1c(-c2ccccc2[N+](=O)[O-])nc2ccccn12 ?
> 100 µM (inactive)

----------
system: UACC-62; test: NCI tumour cell line growth inhibition, 48 h
Active and inactive are the calls of the source. No stated cut-off is given here; in the data, active = GI50 up to about 1.1 µM and inactive = higher.
Record form. Attribute: GI50. Fill in for each entry.

# annotated cases, reported GI50 shown
{"Compound": "COc1ccc(N/N=C2\\CCOc3ccc(C)cc3C2=O)cc1", "Property name": "GI50", "Readout value": "6.81 µM (inactive)"}
{"Compound": "Cc1cccc(NC(=O)C(=O)C(C(=O)c2ccccc2F)C2OC(=O)c3ccccc32)c1Cl (stereo unspecified)", "Property name": "GI50", "Readout value": "23.2 µM (inactive)"}
{"Compound": "CC(C)COC(=O)N1N=NC2C3CC(=O)C(O3)C21 (stereo unspecified)", "Property name": "GI50", "Readout value": "> 100 µM (inactive)"}
{"Compound": "O=C1CC2(CCNCC2)C(=O)N1N1CCOCC1", "Property name": "GI50", "Readout value": "> 100 µM (inactive)"}

Give GI50 for each of the items listed below.
1. CCOC(=O)[C@@H]1[C@@H](c2ccccc2)N(C)O[C@@]1(c1ccccc1)C(F)(F)F
2. CC(C)n1c(=O)n(-c2ccccc2)n(C(C)(C)C)c1=O
3. COc1ccc2nc3cc([N+](=O)[O-])ccc3c(Nc3ccc(S(=O)(=O)Nc4ncccn4)cc3)c2c1
4. CC(Oc1ccccc1Cl)C(=O)NN1C(=O)CSC1c1ccccc1 (stereo unspecified)
5. O=C1NC2NC3NC(=O)NC3NC2N1 (stereo unspecified)
6. O=C(/C=C/c1ccc(O)c(O)c1)OCCOC(=O)/C=C/c1ccc(O)c(O)c1
7. Cc1cc(S(=O)(=O)/N=C(\NN)Nc2ccc(Cl)cc2)c(S)cc1Cl

["43.5 µM (inactive)", "> 100 µM (inactive)", "> 65.9 µM (inactive)", "> 100 µM (inactive)", "> 100 µM (inactive)", "18.7 µM (inactive)", "1.5 µM (inactive)"]

Give GI50 for each of the items listed below.
1. COC(=O)C1=C(C)NC(=S)NC1c1ccc(N(CCCl)CCCl)cc1Cl (stereo unspecified)
2. CCCN(CCCC(NC(C)=O)C(=O)NCc1ccccc1)C(=O)N(C)N=O (stereo unspecified)
3. COc1cc2c3cc1Oc1c(O)c(OC)cc4c1C(Cc1ccc(O)c(c1)Oc1ccc(cc1)CC3N(C)CC2)N(C)CC4 (stereo unspecified)
4. CCOC(=O)c1c(N2CCCC2)[nH]c(=O)c(C(c2c(O)c(C(=O)OCC)c(N3CCCC3)[nH]c2=O)C(C)C)c1O
5. O=c1c(-c2ccc(O)cc2)coc2cc(OC3OC(CO)C(O)C(O)C3O)cc(O)c12 (stereo unspecified)
6. C[P+](C)(CC(F)(F)F)c1ccccc1

1: 3.05 µM (inactive); 2: > 100 µM (inactive); 3: 23.2 µM (inactive); 4: > 100 µM (inactive); 5: 81.3 µM (inactive); 6: > 100 µM (inactive)

Give GI50 for each of the items listed below.
1. CNC(=O)CN(CC(=O)O)C(=O)NC
2. C#CC1/C(=C\C(=O)OC)CCCC1O (stereo unspecified)
3. O=C1/C(=C/c2ccc(Cl)cc2)Sc2scc(-c3cccc([N+](=O)[O-])c3)[n+]21
4. CCCCCCCCCCCCC(O)[C@H]1CC[C@H](C(O)CCCCCC(=O)CCCCC2CC(C(C)=O)C(=O)O2)O1 (stereo partly specified)

> 100 µM (inactive)
> 100 µM (inactive)
3.16 µM (inactive)
4.67 µM (inactive)

----------
test system: SNB-75; assay: NCI tumour cell line growth inhibition, 48 h
The source made the active and inactive calls. No stated cut-off is given here; in the data, active = GI50 up to about 1.1 µM and inactive = higher.
Record form. Attribute: GI50. Fill in for each entry.

{"Molecule": "N#Cc1c2c(c(Nc3ccc(F)cc3)n3c1nc1ccccc13)CCCC2", "Property name": "GI50", "Readout value": "45.7 µM (inactive)"}
{"Molecule": "CC1=C(C)CC2C(=O)N(c3cc(C(C)(C)C)ccc3C(C)(C)C)C(=O)C2C1 (stereo not drawn)", "Property name": "GI50", "Readout value": "22.3 µM (inactive)"}

Give GI50 for each of the items listed below.
1. CCOC(=O)c1nc2ccc(Cl)cc2c2c1Cc1ccccc1-2
2. C#CC1/C(=C\C(=O)OC)CCCC1O (stereo not drawn)

["70 µM (inactive)", "> 100 µM (inactive)"]

Give GI50 for each of the items listed below.
1. COc1ccc(CNC2=C(NC(C)=O)C(=O)c3ccccc3C2=O)cc1
2. CCOC(=O)C(NC(=O)OC(C)(C)C)C(=O)OCC

1: 12.8 µM (inactive); 2: > 100 µM (inactive)

Give GI50 for each of the items listed below.
1. N=C(N)SCCN1CCCCC1
2. NCc1ccc(-c2ccc(-c3ccc(-c4ccc(CN)s4)s3)s2)s1

37.4 µM (inactive)
> 100 µM (inactive)

----------
test system: SN12C; experiment: NCI tumour cell line growth inhibition, 48 h
Active and inactive are the calls of the source. Cut-off read from the data, not from the text of the source: active = GI50 up to about 1.1 µM and inactive = higher.
Bench note: report the call from active, inactive

{"Molecule": "CC/C=C\\C/C=C\\C/C=C\\CCCCCCCC(=O)OCC", "Category": "inactive"}
{"Molecule": "CC(=O)Nc1ccc(C(=O)N2N=C(C)/C(=C/c3cccc(O)c3)C2=O)cc1", "Category": "inactive"}
{"Molecule": "CCOC(=O)C(NC(=O)OC(C)(C)C)C(=O)OCC", "Category": "inactive"}
{"Molecule": "Cc1nc(N)sc1C(=O)Nc1nc[nH]n1", "Category": "inactive"}
{"Molecule": "CC(=O)O[C@H]1C(=O)[C@@]2(C)[C@H]([C@H](OC(=O)c3ccccc3)[C@]3(O)C[C@H](OC(=O)[C@H](O)[C@@H](NC(=O)c4cccc(N=[N+]=[N-])c4)c4ccccc4)C(C)=C1C3(C)C)[C@]1(OC(C)=O)CO[C@@H]1C[C@@H]2O", "Category": "active"}

Would you mind telling me which call this test gave CC(O)CN1c2ccccc2Sc2ccc(Cl)cc21 (stereo not given) ?
inactive

Now the molecule CCN1c2nc3ccccc3nc2N(CC)c2nc3ccccc3nc21
inactive

Now the molecule C#CC1(O)C(COP(=O)(O)OC(COCCCCCCCCCCCCCCCCCC)COP(=O)(O)OCC2OC(n3cc(C)c(=O)[nH]c3=O)CC2N=[N+]=[N-])OC(n2ccc(N)nc2=O)C1O (stereo not given)
active

Now the molecule CN(N=O)C(=O)N(N)CCCCC(NC(=O)OCc1ccccc1)C(=O)OCc1ccccc1 (stereo not given)
inactive

Now the molecule CNCC(SC)c1ccc(O)c(O)c1 (stereo not given)
inactive
